As shown below, each of these compounds has a reported inhibition at 0.1 µM value.
target: Rat Striatal Nicotinic Receptors ([^3H]MLA binding sites; α7) (Rattus norvegicus, UniProt Q05941); construct: Whole brain, excluding cortex and cerebellum, was homogenized in 20 vol of ice-cold buffer; from tissue; host or cells: rat brain membranes (whole brain excluding cortex and cerebellum); experiment: Inhibition of [^3H]MLA (methyllycaconitine) binding; details: 100 nM analog; [^3H]MLA; nonspecific S-nicotine; rat brain membranes; read-out: [^3H]MLA binding, % inhibition
Sequence (Q05941 23-502): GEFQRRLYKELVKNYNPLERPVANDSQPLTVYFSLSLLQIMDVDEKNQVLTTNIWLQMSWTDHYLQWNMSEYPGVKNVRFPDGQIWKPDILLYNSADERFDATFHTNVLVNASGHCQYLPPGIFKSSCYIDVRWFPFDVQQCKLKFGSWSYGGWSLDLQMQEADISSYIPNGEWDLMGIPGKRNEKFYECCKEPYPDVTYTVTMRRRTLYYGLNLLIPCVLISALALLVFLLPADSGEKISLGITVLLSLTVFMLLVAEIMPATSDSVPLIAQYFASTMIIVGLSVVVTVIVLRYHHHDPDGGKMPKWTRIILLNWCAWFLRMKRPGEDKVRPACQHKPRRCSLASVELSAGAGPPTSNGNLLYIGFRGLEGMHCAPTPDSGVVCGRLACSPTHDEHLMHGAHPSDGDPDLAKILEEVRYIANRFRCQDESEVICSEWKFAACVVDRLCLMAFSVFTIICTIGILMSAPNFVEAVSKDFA
Output spec: scalar in %, unitless text.

Answered cases to consult:
>>> value_measured("OCCCc1ccc[n+](CCCCc2ccc(CCCC[n+]3cccc(CCCO)c3)cc2)c1")
3
>>> value_measured("C(#Cc1cccc(C#CCCC[n+]2cccc3ccccc32)c1)CCC[n+]1cccc2ccccc21")
3.9
>>> value_measured("Cc1cc(C)c[n+](CCC#Cc2ccc(C#CCC[n+]3cc(C)cc(C)c3)cc2)c1")
0
>>> value_measured("Cc1cc(C)c[n+](CCCC#Cc2cccc(C#CCCC[n+]3cc(C)cc(C)c3)c2)c1")
1.3
>>> value_measured("Cc1cc(C)c[n+](CCCc2ccc(-c3ccc(CCC[n+]4cc(C)cc(C)c4)cc3)cc2)c1")
3.6

Request the reported inhibition at 0.1 µM associated with Cc1cc[n+](CCOCCOCCOCC[n+]2ccc(C)cc2C)c(C)c1
2.9

Request the reported inhibition at 0.1 µM associated with c1cc(-c2ccc(CCC[n+]3ccc4c(c3)CCCC4)cc2)ccc1CCC[n+]1ccc2c(c1)CCCC2
5.1

Request the reported inhibition at 0.1 µM associated with CCc1ccc[n+](CCCCc2ccc(CCCC[n+]3cccc(CC)c3)cc2)c1
4

Request the reported inhibition at 0.1 µM associated with CN1CCC[C@@H]1c1ccc[n+](CCCC#Cc2cccc(C#CCCC[n+]3cccc([C@H]4CCCN4C)c3)c2)c1
2.6

Request the reported inhibition at 0.1 µM associated with C(#Cc1ccccc1C#CCCC[n+]1cccc2ccccc21)CCC[n+]1cccc2ccccc21
2.3

Request the reported inhibition at 0.1 µM associated with Brc1ccc[n+](CCCCCc2ccccc2CCCCC[n+]2cccc(Br)c2)c1
0.9

Request the reported inhibition at 0.1 µM associated with Cc1cc[n+](CCOCCOCCOCC[n+]2ccc(C)c(C)c2)cc1C
14

Request the reported inhibition at 0.1 µM associated with Cc1cc[n+](CC#Cc2ccc(-c3ccc(C#CC[n+]4ccc(C)c(C)c4)cc3)cc2)cc1C
16

Request the reported inhibition at 0.1 µM associated with OCc1ccc[n+](CCOCCOCCOCC[n+]2cccc(CO)c2)c1
11

Request the reported inhibition at 0.1 µM associated with c1cc[n+](CCCCCc2ccccc2CCCCC[n+]2ccccc2)cc1
1.9

Request the reported inhibition at 0.1 µM associated with Cc1cc[n+](CCC#Cc2ccc(C#CCC[n+]3ccc(C)c(C)c3)cc2)cc1C
0

Request the reported inhibition at 0.1 µM associated with Cc1cccc[n+]1CCCc1ccc(-c2ccc(CCC[n+]3ccccc3C)cc2)cc1
0
